assay: Positive allosteric modulator activity at rat cortical membrane GABA-B receptor incubated for 60 min by [35S]GTPgammaS binding assay; assay type: cell membranes, Cortex
REPORTED_ENDPOINT: pEC50

INSERT INTO assay_data (compound, reported_measurement) VALUES
  ('Cc1ncc(-c2ccc(C(F)(F)F)cc2)c(N[C@@H]2C[C@H]3CC[C@@H]2C3)n1', 6.13),
  ('Cc1cc(N2CCCCC2CCO)n2nc(-c3ccc(F)cc3)cc2n1 (racemic)', 5.93),
  ('Cc1cc(N2CCCCC2CCO)n2nc(-c3ccccc3)cc2n1 (racemic)', 5.91),
  ('Cc1cc(N2CCCCC2CCO)c2cc(-c3ccc(Cl)cc3)oc2n1 (racemic)', 5.92),
  ('CC(=O)Nc1ccccc1-c1cc(C)nc2cc(-c3ccc(Cl)cc3)nn12', 6.17);

###

test: Positive allosteric modulator activity at rat cortical membrane GABA-B receptor incubated for 60 min by [35S]GTPgammaS binding assay; type: cell membranes, Cortex
REPORTED_ENDPOINT: pEC50

INSERT INTO assay_data (compound, reported_measurement) VALUES
  ('Cc1nc2ccc(I)cc2c(N2CCCCC2)c1S(C)(=O)=O', 5.83),
  ('CCOC(=O)C1CCCN(c2cc(C)nc3cc(-c4ccc(Cl)cc4)nn23)C1 (racemic)', 5.85),
  ('CCOC(=O)C1=C(N2CCOCC2CCO)N2N=C(c3ccc(Cl)cc3)CC2N=C1C (racemic)', 6.09),
  ('Cc1cc(N2CCCCC2C(=O)O)n2nc(-c3ccc(Cl)cc3)cc2n1 (racemic)', 5.97),
  ('Cc1cc(NC2CCCCNC2=O)n2nc(-c3ccc(Cl)cc3)cc2n1 (racemic)', 5.89);
